Assay: Lethal dose in mice determined by Litchfield and Wilcoxon methods after peroral administration.
Assay type: toxicity, organism-based
Conditions: mouse, in vivo, po
Listed here are compounds together with their documented LD50.

# count of solved cases: 3
# COMPOUND, READOUT_NAME, MEAS_VALUE
rows = [
    ("Cc1cc(N/C(=N/C(C)(C)C)Nc2nc3ccccc3s2)c2ccccc2n1", "LD50", "> 1000 mg/kg"),
    ("Cc1ccc2cccc(N/C(=N\\C(C)(C)C)Nc3nccs3)c2n1", "LD50", "> 1000 mg/kg"),
    ("Cc1cc(N/C(=N/C(C)(C)C)NC2NC=CS2)c2ccccc2n1 (stereo unspecified)", "LD50", "200 mg/kg"),
]

Looking up Cc1cc(N/C(=N/C2CCCCCC2)Nc2nccs2)c2ccccc2n1 , I found its LD50 recorded as > 1000 mg/kg

* * *

Experiment: Lethal dose in mice determined by Litchfield and Wilcoxon methods after peroral administration.
Type: toxicity, organism-based
Details: mouse, in vivo, po
READOUT_NAME: LD50

In the examples that follow, each entry is paired with its recorded LD50.
# COMPOUND, LD50
records = [
    ("CCOC(=O)c1csc(/N=C(\\Nc2cc(C)nc3ccccc23)NC2CCCCC2)n1", "> 1000 mg/kg"),
    ("CC(C)(C)/N=C(\\N)Nc1nccs1.O=C(O)/C=C\\C(=O)O", "600 mg/kg"),
    ("CC(C)(C)/N=C(\\Nc1ccncc1)Nc1nccs1", "300 mg/kg"),
    ("Cc1cc(N/C(=N/C(C)(C)C)Nn2cnnc2)c2ccccc2n1", "> 1000 mg/kg"),
    ("Cc1cc(N/C(=N/CC(C)C)Nc2nccs2)c2ccccc2n1", "1000 mg/kg"),
]

Entry under test: CC(C)(C)/N=C(/Nc1nccs1)Nc1cccc2cccnc12 . Its LD50 was > 1000 mg/kg

LD50 reading for COc1cc(N/C(=N\C(C)(C)C)Nc2nccs2)c2ncccc2c1 : > 1000 mg/kg

// LD50 lookup, compound = Cc1cc(N/C(=N/C2CCCCCCC2)Nc2nccs2)c2ccccc2n1 , result: > 1000 mg/kg

What the record says about Cc1cc(/N=C(\Nc2cc(C)nc3ccccc23)NC2CCCCC2)sn1 : LD50 is > 1000 mg/kg

LD50 measured on Cc1ccc2nc(C)cc(N/C(=N/C3CCCCC3)Nc3nccs3)c2c1 = > 1000 mg/kg

// sample CC(C)(C)/N=C(\Nc1ccccc1)Nc1nccs1 , its LD50 was > 1000 mg/kg

Record Cc1cc(N/C(=N/C(C)(C)C)Nc2cccs2)c2ccccc2n1 , field LD50: > 1000 mg/kg

Briefly, LD50 measured for CC(C)(C)/N=C(/Nc1nccs1)Nc1cccc2ncccc12 : > 1000 mg/kg

Value of LD50 reported for the compound CC(C)(C)/N=C(\Nc1ccc(Cl)cn1)Nc1nccs1 is > 1000 mg/kg

The compound listed as CC(C)c1cc(N/C(=N/C(C)(C)C)Nc2nccs2)c2ccccc2n1 has a reported LD50 of > 1000 mg/kg

Briefly, LD50 measured for CC(C)(C)/N=C(\Nc1nccs1)Nc1cc(-c2ccccc2)nc2ccccc12 : > 1000 mg/kg

Just so you know, measured LD50 for Cc1cc(N/C(=N/C2CCCC(C)C2C)Nc2nccs2)c2ccccc2n1.Cl (configuration not stated) came out at > 1000 mg/kg
